Test system: recombinant VPS35/VPS29 complex (wild type) (UniProt Q96QK1 1-796; Q9UBQ0 1-182)
Measurement protocol: ITC; FAM21 R20-21 titrated into the VPS35/VPS29 complex; three experiments for each complex with two independently prepared protein samples; global fitting with SEDPHAT
Measurement conditions: both partners purified
Endpoint name: pKd
Scale: pKd equals -log10([C]), with [C] in mol/L.

Documented pKd of FAM21 R20-21 fragment (domain or fragment, Limits not printed (construct is in cited ref 16); taken as the C-terminal tail spanning LFa motifs 20-21. The LFa 20/21 positions are recalled from the entry's annotation and not shown in the …) KSKKKVEAKSIFDDDMDDIFSTGIQAKTTKPKSRSAQAAPEPRFEHKVSNIFDDPLNAFGGQ : 5.62
